target: PCK2 C306 (Q16822) (Homo sapiens)
Sequence (Q16822 33-640): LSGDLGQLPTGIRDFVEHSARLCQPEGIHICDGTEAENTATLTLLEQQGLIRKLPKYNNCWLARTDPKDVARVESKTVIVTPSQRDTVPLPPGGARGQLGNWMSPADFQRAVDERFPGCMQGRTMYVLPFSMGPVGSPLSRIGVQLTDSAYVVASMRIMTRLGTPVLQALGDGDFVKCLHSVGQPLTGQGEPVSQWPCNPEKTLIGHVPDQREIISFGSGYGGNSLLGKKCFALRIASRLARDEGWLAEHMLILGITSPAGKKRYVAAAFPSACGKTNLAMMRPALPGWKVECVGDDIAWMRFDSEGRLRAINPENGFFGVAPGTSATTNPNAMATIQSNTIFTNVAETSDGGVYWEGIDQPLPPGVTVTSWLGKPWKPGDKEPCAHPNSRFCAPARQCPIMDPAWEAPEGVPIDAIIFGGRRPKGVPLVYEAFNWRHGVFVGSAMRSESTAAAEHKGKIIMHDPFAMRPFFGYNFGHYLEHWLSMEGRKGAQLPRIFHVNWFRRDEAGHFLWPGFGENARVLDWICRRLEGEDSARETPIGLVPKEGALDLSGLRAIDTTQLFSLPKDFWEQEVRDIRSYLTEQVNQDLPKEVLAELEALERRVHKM
experiment_notes: Competitive isoTOP-ABPP, cell lysates
Assay type: binding
condition_notes: 500 μM, invitro, ramos
measurement_label: isoTOP-ABPP ratio, Q16822_C306
Just the number, please.

Consider the following illustrative entries.
[
  {
    "substance_smiles": "Cn1cc(S(=O)(=O)N2CCOCC2)cc1C(=O)NC(=O)CCl",
    "target": "PCK2 C306 (Q16822) (Homo sapiens)",
    "assay_value": 1.2
  },
  {
    "substance_smiles": "O=C(CCl)NC(=O)NC12CC3CC(CC(C3)C1)C2",
    "target": "PCK2 C306 (Q16822) (Homo sapiens)",
    "assay_value": 0.7
  },
  {
    "substance_smiles": "O=C(CCl)NCCc1c[nH]c2ccccc12",
    "target": "PCK2 C306 (Q16822) (Homo sapiens)",
    "assay_value": 1.0
  }
]

# query: isoTOP-ABPP ratio, Q16822_C306 of entry O=C(CCl)N1CCN(S(=O)(=O)c2ccccc2F)CC1
1.1

###

target: IRF4 C194 (Q15306) (Homo sapiens)
Sequence (Q15306 whole entry): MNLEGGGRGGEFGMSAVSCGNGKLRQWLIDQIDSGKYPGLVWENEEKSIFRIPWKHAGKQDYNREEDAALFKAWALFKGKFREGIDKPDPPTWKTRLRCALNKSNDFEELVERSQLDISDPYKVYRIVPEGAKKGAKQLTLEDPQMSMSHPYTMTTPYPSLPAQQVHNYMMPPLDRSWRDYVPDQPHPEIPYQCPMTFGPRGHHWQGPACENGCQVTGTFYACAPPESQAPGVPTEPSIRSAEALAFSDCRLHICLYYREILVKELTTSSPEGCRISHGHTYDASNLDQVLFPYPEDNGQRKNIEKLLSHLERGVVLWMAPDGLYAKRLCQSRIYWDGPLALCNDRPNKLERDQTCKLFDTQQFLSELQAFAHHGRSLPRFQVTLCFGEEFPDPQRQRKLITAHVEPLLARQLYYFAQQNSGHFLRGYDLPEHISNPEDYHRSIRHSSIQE
experiment_notes: Competitive isoTOP-ABPP, cell lysates
Type: binding
condition_notes: 500 μm, in-vitro_ramos
// values below are reported isoTOP-ABPP reactivity ratio, Q15306_C194
Just the number, please.

[
  {
    "substance_smiles": "C=CC(=O)Nc1cc(C)c(Br)cc1C",
    "assay_value": 1.1
  },
  {
    "substance_smiles": "C=CC(=O)Nc1cc(F)c(N2CCN(C(=O)OC(C)(C)C)CC2)c(F)c1",
    "assay_value": 2.1
  }
]

Next:
# query: isoTOP-ABPP reactivity ratio, Q15306_C194 of entry C=CC(=O)N(Cc1cccnc1)c1cc(C(F)(F)F)cc(C(F)(F)F)c1
1.1

###

target: ACAT1 C413 (P24752) (Homo sapiens)
Sequence (P24752 34-427): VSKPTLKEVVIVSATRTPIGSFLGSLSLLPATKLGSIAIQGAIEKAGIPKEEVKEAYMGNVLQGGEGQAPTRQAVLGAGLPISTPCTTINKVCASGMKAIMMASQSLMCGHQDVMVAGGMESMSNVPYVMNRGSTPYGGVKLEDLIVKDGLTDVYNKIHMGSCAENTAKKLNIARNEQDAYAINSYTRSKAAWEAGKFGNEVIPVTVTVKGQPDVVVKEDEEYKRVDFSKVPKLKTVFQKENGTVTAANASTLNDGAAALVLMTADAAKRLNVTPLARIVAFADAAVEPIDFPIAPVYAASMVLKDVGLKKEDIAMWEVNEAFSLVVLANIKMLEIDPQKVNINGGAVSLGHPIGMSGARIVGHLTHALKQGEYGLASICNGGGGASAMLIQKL
experiment_notes: Competitive isoTOP-ABPP, cell lysates
Assay type: binding
condition_notes: 500 μm in-vitro ramos
// values below are reported isoTOP-ABPP ratio (reactivity profile), P24752_C413
Just the number, please.

[
  {
    "molecule": "N#C/C(=C\\c1cc(C(F)(F)F)cc(C(F)(F)F)c1)C(N)=O",
    "assay_value": 1.2
  },
  {
    "molecule": "CC(Br)C(=O)Nc1cc(C(F)(F)F)cc(C(F)(F)F)c1 (centres unmarked)",
    "assay_value": 1.2
  },
  {
    "molecule": "O=C(CCl)N1CCN(CC(=O)N2CCOCC2)CC1",
    "assay_value": 0.7
  },
  {
    "molecule": "C=CC(=O)N(Cc1cccnc1)c1ccc(Oc2ccccc2)c(C(F)(F)F)c1",
    "assay_value": 0.9
  },
  {
    "molecule": "O=C(CCl)N1CCC(C(O)(c2ccccc2)c2ccccc2)CC1",
    "assay_value": 14.0
  }
]

# query: isoTOP-ABPP ratio (reactivity profile), P24752_C413 of entry CCN(CC)c1ccc(S(N)(=O)=O)cc1NC(=O)CCl
1.1

Next: COc1ccccc1OCCNC(=O)CCl
1.4

Next: CC(C)CCOCCNC(=O)CCl
1.3

Next: O=C(CCl)NC12CC3CC(CC(C3)C1)C2
1.4

Next: O=C(CCl)N1CCOCC1
1.1

Next: O=C(/C=C/c1ccccc1)Nc1cc(C(F)(F)F)cc(C(F)(F)F)c1
0.9

###

target: cysteines in MDA-MB-231 and Ramos cells (Homo sapiens)
experiment_notes: Competitive isoTOP-ABPP in situ (fragment-treated cells)
Type: cell-based
condition_notes: 200 μM, insitu, ramos
measurement_label: isoTOP-ABPP ratio P68366_C54
Just the number, please.

Consider the following illustrative entries.
[
  {
    "molecule": "O=C(CCl)N1CCN(S(=O)(=O)c2ccccc2F)CC1 [compound 10]",
    "isoTOP-ABPP ratio P68366_C54": 2.8
  },
  {
    "molecule": "O=C(CCl)NCCc1c[nH]c2ccccc12 [compound 13]",
    "isoTOP-ABPP ratio P68366_C54": 1.3
  }
]

# query: isoTOP-ABPP ratio P68366_C54 of entry O=C(CCl)N1CCN(CC(=O)N2CCOCC2)CC1 [compound 29]
1.0

Next: C=CC(=O)N(Cc1cccnc1)c1cc(C(F)(F)F)cc(C(F)(F)F)c1 [compound 31]
1.1

###

// values below are reported isoTOP-ABPP ratio P35611_C68
target: cysteines in MDA-MB-231 and Ramos cells (Homo sapiens)
Sequence (P35611 1-737): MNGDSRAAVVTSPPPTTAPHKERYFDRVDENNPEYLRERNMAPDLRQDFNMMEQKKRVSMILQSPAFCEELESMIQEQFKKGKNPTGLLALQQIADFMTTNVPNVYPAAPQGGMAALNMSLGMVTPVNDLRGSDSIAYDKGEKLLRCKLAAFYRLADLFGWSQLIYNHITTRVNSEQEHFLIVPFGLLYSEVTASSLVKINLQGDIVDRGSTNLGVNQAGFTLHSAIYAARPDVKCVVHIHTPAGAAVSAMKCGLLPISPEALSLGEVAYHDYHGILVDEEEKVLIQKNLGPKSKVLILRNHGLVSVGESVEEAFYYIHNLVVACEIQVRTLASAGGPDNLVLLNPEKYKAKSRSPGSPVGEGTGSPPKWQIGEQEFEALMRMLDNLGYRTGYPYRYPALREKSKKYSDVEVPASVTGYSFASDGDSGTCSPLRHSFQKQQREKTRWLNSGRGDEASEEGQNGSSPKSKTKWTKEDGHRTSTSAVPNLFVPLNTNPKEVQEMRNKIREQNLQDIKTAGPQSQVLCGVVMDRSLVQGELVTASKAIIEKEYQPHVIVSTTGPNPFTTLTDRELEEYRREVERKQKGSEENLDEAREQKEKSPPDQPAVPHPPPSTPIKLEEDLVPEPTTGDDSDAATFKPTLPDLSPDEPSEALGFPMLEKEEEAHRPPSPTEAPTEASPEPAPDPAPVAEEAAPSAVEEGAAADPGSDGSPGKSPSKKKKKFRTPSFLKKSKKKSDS
experiment_notes: Competitive isoTOP-ABPP in situ (fragment-treated cells)
Assay type: cell-based
condition_notes: 200 μM, insitu, 231
Just the number, please.

Consider the following illustrative entries.
[
  {
    "compound": "CC1CCc2ccccc2N1C(=O)CCl (stereo not shown)",
    "isoTOP-ABPP ratio P35611_C68": 20.0
  },
  {
    "compound": "O=C(CCl)NCCc1c[nH]c2ccccc12",
    "isoTOP-ABPP ratio P35611_C68": 1.1
  },
  {
    "compound": "C=CC(=O)Nc1cc(F)c(N2CCN(C(=O)OC(C)(C)C)CC2)c(F)c1",
    "isoTOP-ABPP ratio P35611_C68": 1.4
  },
  {
    "compound": "COc1ccccc1OCCNC(=O)CCl",
    "isoTOP-ABPP ratio P35611_C68": 1.7
  },
  {
    "compound": "O=C(CCl)Nc1cccc2ncccc12",
    "isoTOP-ABPP ratio P35611_C68": 1.0
  }
]

# query: isoTOP-ABPP ratio P35611_C68 of entry CC(C)CCOCCNC(=O)CCl
0.9

Next: O=C(CCl)NC(=O)NC12CC3CC(CC(C3)C1)C2
3.6

Next: O=C(CCl)NC12CC3CC(CC(C3)C1)C2
0.8

Next: O=C(CCl)N1CCN(S(=O)(=O)c2ccccc2F)CC1
1.9

Next: Cc1ccc(C=C(C#N)C(=O)NCCN2CCOCC2)cc1
0.9

###

target: CASP8 C360 (Q14790) (Homo sapiens)
Sequence (Q14790 whole entry): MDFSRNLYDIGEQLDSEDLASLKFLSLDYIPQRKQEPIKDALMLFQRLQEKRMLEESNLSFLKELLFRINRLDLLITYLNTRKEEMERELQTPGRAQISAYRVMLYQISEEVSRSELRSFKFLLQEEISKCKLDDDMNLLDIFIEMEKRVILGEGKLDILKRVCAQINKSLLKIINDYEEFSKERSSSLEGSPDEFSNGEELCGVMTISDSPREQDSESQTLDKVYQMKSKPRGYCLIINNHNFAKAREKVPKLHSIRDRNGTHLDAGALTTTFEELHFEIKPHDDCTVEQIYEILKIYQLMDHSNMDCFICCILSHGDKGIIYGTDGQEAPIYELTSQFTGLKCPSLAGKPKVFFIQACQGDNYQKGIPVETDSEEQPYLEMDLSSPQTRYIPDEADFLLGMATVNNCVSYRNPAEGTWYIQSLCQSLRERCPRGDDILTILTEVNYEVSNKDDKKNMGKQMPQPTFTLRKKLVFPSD
experiment_notes: Competitive isoTOP-ABPP, cell lysates
Format: binding
condition_notes: 500 μm in-vitro ramos_231
// values below are reported isoTOP-ABPP ratio (reactivity profile), Q14790_C360
Just the number, please.

Consider the following illustrative entries.
[
  {
    "molecule": "O=C(CCl)NC12CC3CC(CC(C3)C1)C2 [compound 21]",
    "assay_value": 1.9
  },
  {
    "molecule": "CC(C)CCOCCNC(=O)CCl [compound 27]",
    "assay_value": 0.8
  },
  {
    "molecule": "CC(Cl)C(=O)Nc1cc(C(F)(F)F)cc(C(F)(F)F)c1 (stereo not drawn) [compound 25]",
    "assay_value": 1.0
  },
  {
    "molecule": "N#C/C(=C\\c1cc(C(F)(F)F)cc(C(F)(F)F)c1)C(N)=O [compound 23]",
    "assay_value": 1.4
  },
  {
    "molecule": "COc1ccccc1OCCNC(=O)CCl [compound 28]",
    "assay_value": 1.1
  }
]

Next:
Form field - read-out: isoTOP-ABPP ratio (reactivity profile), Q14790_C360; system: CASP8 C360 (Q14790) (Homo sapiens); submitted item: O=C(CCl)N1CCC(C(O)(c2ccccc2)c2ccccc2)CC1 [compound 20]
1.9

// data source = patent US10670605B2
